Recorded values, source PubChem BioAssay (EPA / NIEHS).

Read-out: Thrombomodulin, THBD (gene 7056)
Test: BSK_CASM3C_Thrombomodulin: BioMAP Diversity Plus: CASM3C Assay for Thrombomodulin Biomarker Activity (AID 2283051);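 further: thrombomodulin protein level measured by ELISA 24 h after dosing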
Details: primary human coronary artery smooth muscle cells; actives raise or lower the signal
The source made the active and inactive calls. How the source made its calls: active means hit-call score of the fitted dose curve at least 0.9, where 1 is the maximum; inactive means score below 0.9.
Please state which outcome applies, choosing from active, inactive

# example entries with known answers
CCOP(=S)(OCC)Oc1nc(Cl)n(C(C)C)n1; inactive
C=C(C)CN(CC)c1c([N+](=O)[O-])cc(C(F)(F)F)cc1[N+](=O)[O-]; inactive
Cc1ccc(N=CN(C)C=Nc2ccc(C)cc2C)c(C)c1; active
CCSC(=O)N1CCCCCC1; inactive
CNC(=O)Oc1cccc2ccccc12; inactive

# fetch the recorded call for `CNC(=O)N(C)c1nnc(C(C)(C)C)s1` here
inactive

Can you check `OC(c1ccc(Cl)cc1)(c1ccc(Cl)cc1)C(Cl)(Cl)Cl` next?
active

* * *

Assay: CCTE_Shafer_MEA_acute_cross_correlation_HWHM: CCTE's Neural Acute Assay for Cross Correlation at Half Width at Half Maximum, Shafer Lab (AID 2284026);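 further: percent change per well from pre-dose baseline in spike cross-correlogram half width; hits are a decrease in cross-correlogram half width relative to DMSO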
Protocol: CCTE_Shafer_MEA_acute assay is conducted using Axion Biosystems 48 well microelectrode array (MEA) plates and Maestro recording system. Each well of the MEA plate contains a grid of 16 microelectrodes embedded in the culture surface. Electrically active cells, such as neurons, can be cultured over the electrodes, and electrical activity in these cells can be recorded extracellularly. […]
Activity calls are given as the source filed them. The calls were made as follows: active = hit-call score of the fitted dose curve at least 0.9, where 1 is the maximum; inactive = score below 0.9.
metric: AC50

Solved cases (4 shown):
O=C(Nc1ccccc1-c1ccc(Cl)cc1)c1cccnc1Cl; 23.5 µM (active)
N#CN=C1SCCN1Cc1ccc(Cl)nc1; inactive
COCC(=O)N(c1c(C)cccc1C)C(C)C(=O)OC (stereo not drawn); inactive
CCOc1cc(C(C)(C)C)ccc1C1COC(c2c(F)cccc2F)=N1 (stereo not drawn); 20 µM (active)

Could you tell me AC50 for each of these compounds? They are listed below.
1. COC(=O)N(C(=O)N1CO[C@@]2(C(=O)OC)Cc3cc(Cl)ccc3C2=N1)c1ccc(OC(F)(F)F)cc1
2. COP(=S)(OC)SCn1nnc2ccccc2c1=O

["24.3 µM (active)", "inactive"]

Could you tell me AC50 for each of these compounds? They are listed below.
1. CCOP(=O)(OCC)Oc1nc(Cl)c(Cl)cc1Cl
2. CO/N=C(/C1=NOCCO1)c1ccccc1Oc1ncnc(Oc2ccccc2Cl)c1F
3. Cc1c(COC(=O)[C@@H]2[C@H](/C=C(\Cl)C(F)(F)F)C2(C)C)cccc1-c1ccccc1

1. 34.8 µM (active)
2. 20 µM (active)
3. 2.29 µM (active)

Could you tell me AC50 for each of these compounds? They are listed below.
1. OC(c1ccc(Cl)cc1)(c1ccc(Cl)cc1)C(Cl)(Cl)Cl
2. CC1(C)C(C=C(Cl)Cl)C1C(=O)OC(C#N)c1cccc(Oc2ccccc2)c1 (stereo not drawn)
3. CCOc1nc(F)cc2nc(S(=O)(=O)Nc3c(Cl)cccc3Cl)nn12
4. CC1(C)CCC(=Cc2ccc(Cl)cc2)C1(O)Cn1cncn1 (stereo not drawn)
5. C=C(C)CN(CC)c1c([N+](=O)[O-])cc(C(F)(F)F)cc1[N+](=O)[O-]
6. Clc1nc(Cl)nc(Nc2ccccc2Cl)n1

5.32 µM (active)
inactive
inactive
inactive
inactive
inactive

Could you tell me AC50 for each of these compounds? They are listed below.
1. Cc1ccc(N=CN(C)C=Nc2ccc(C)cc2C)c(C)c1
2. CC(C)N1C(=O)N(c2ccccc2)CSC1=NC(C)(C)C
3. Nc1c(Cl)c(F)nc(OCC(=O)O)c1Cl

1. inactive
2. 20 µM (active)
3. inactive

* * *

Experiment: ATG_PXRE_CIS: Attagene CIS-FACTORIAL HepG2 Assay for human Pregnane X Receptor Element (PXRE) (AID 2282957)
Details: HepG2 Attagene CIS-FACTORIAL PXRE reporter, mRNA; actives raise or lower the signal
Active and inactive are the calls of the source. The calls were made as follows: active = hit-call score of the fitted dose curve at least 0.9, where 1 is the maximum; inactive = score below 0.9.
Please state which outcome applies, choosing from Yes for active, No for inactive

Cc1ccc(N=CN(C)C=Nc2ccc(C)cc2C)c(C)c1; No
CC(C)C1(C)N=C(c2ncccc2C(=O)O)NC1=O (centres undefined); No
N#Cc1c(Cl)cccc1Cl; Yes
CC(C)NC(=O)N1CC(=O)N(c2cc(Cl)cc(Cl)c2)C1=O; Yes
CN/C(=N\[N+](=O)[O-])NCc1cnc(Cl)s1; No
N#CN=C1SCCN1Cc1ccc(Cl)nc1; Yes
CCOC(=O)C(C)OC(=O)c1cc(Oc2ccc(C(F)(F)F)cc2Cl)ccc1[N+](=O)[O-] (centres undefined); Yes
COP(=S)(OC)Oc1ccc([N+](=O)[O-])c(C)c1; Yes

# fetch the recorded call for `Cc1cc(C)nc(Nc2ccccc2)n1` here
No

Can you check `COc1ccc(-c2ccccc2)cc1NNC(=O)OC(C)C` next?
Yes

Can you check CCOc1cc(C(C)(C)C)ccc1C1COC(c2c(F)cccc2F)=N1 (centres undefined) next?
Yes

Can you check `COC(=O)NS(=O)(=O)c1ccc(N)cc1` next?
Yes

Can you check `O=C(Nc1ccccc1-c1ccc(Cl)cc1)c1cccnc1Cl` next?
Yes

Can you check CCCN(CC)CC1COC2(CCC(C(C)(C)C)CC2)O1 (centres undefined) next?
Yes

Can you check `CC(C)Oc1cccc(NC(=O)c2ccccc2C(F)(F)F)c1` next?
Yes

Can you check `COc1cc(OC)nc(NC(=O)NS(=O)(=O)c2ncccc2OCC(F)(F)F)n1` next?
Yes

Can you check `COP(=S)(OC)SCn1nnc2ccccc2c1=O` next?
Yes

Can you check CCCCC(C#N)(Cn1cncn1)c1ccc(Cl)cc1 (centres undefined) next?
Yes

Can you check CC1(C)C(C=C(Cl)Cl)C1C(=O)OC(C#N)c1cccc(Oc2ccccc2)c1 (centres undefined) next?
Yes

Can you check `CC(C)Nc1nc(Cl)nc(NC(C)C)n1` next?
Yes

Can you check `Cc1c(COC(=O)[C@@H]2[C@H](/C=C(\Cl)C(F)(F)F)C2(C)C)cccc1-c1ccccc1` next?
Yes

Can you check `Cc1nc(N(C)C)nc(OC(=O)N(C)C)c1C` next?
Yes

Can you check `CSC(=O)c1c(C(F)F)nc(C(F)(F)F)c(C(=O)SC)c1CC(C)C` next?
Yes

Can you check `COC(=O)c1c(C(F)F)nc(C(F)(F)F)c(C2=NCCS2)c1CC(C)C` next?
Yes

* * *

Target: chicken Estrogen Receptor (ERa), ESR1 (gene 396099)
Experiment: ATG_chERa_XSP2: Attagene TRANS-FACTORIAL Multi-Species (XSP2) HepG2 Assay for chicken Estrogen Receptor (ERa) (AID 2283817);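 further: actives raise reporter signal above DMSO so AC50 reflects ER activation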
Inconclusive results are not listed. Activity calls are given as the source filed them. The calls were made as follows: active = hit-call score of the fitted dose curve at least 0.9, where 1 is the maximum; inconclusive = response in the unintended direction; inactive = score below 0.9.
metric: AC50

Solved cases (3 shown):
CC1(C)CCC(=Cc2ccc(Cl)cc2)C1(O)Cn1cncn1 (stereo not given); 27.6 µM (active)
Cc1c(COC(=O)[C@@H]2[C@H](/C=C(\Cl)C(F)(F)F)C2(C)C)cccc1-c1ccccc1; 30.5 µM (active)
CC1(C)C(C=C(Cl)Cl)C1C(=O)OC(C#N)c1cccc(Oc2ccccc2)c1 (stereo not given); 22.8 µM (active)

Could you tell me AC50 for each of these compounds? They are listed below.
1. COP(=S)(OC)Oc1ccc([N+](=O)[O-])c(C)c1
2. CCN(CC)C(=O)C(C)Oc1cccc2ccccc12 (stereo not given)

1: 38.3 µM (active); 2: 7.35 µM (active)

* * *

Read-out: Cytochrome P450 7A1 (Homo sapiens)
Assay: LTEA_HepaRG_CYP7A1: Life Technologies and Expression Analysis (LTEA) Assay for Cytochrome P450 7A1 (CYP7A1) using HepaRG (AID 2283496)
Conditions: mRNA level, 48 h; actives raise or lower the signal
Calls of active or inactive are those of the source. How the source made its calls: active means hit-call score of the fitted dose curve at least 0.9, where 1 is the maximum; inactive means score below 0.9.
Please state which outcome applies, choosing from active, inactive

# example entries with known answers
CS(=O)(=O)c1ccc(C(=O)C2C(=O)CCCC2=O)c([N+](=O)[O-])c1; inactive
N#CN=C1SCCN1Cc1ccc(Cl)nc1; inactive
Clc1cccc(C(Cl)(Cl)Cl)n1; inactive
CCOc1cc(C(C)(C)C)ccc1C1COC(c2c(F)cccc2F)=N1 (stereo not given); active

# fetch the recorded call for `O=C(Nc1ccccc1-c1ccc(Cl)cc1)c1cccnc1Cl` here
active

Can you check `Cc1cc(C)nc(Nc2ccccc2)n1` next?
active

Can you check `COP(=O)(OC)O/C(C)=C/C(=O)N(C)C` next?
inactive

Can you check `O=C(O)c1c(Cl)ccc2cc(Cl)cnc12` next?
inactive

Can you check `CSC(=O)c1c(C(F)F)nc(C(F)(F)F)c(C(=O)SC)c1CC(C)C` next?
inactive

* * *

Assay: BSK_SAg_Proliferation: Cell Proliferation Assessment in the BioMAP Diversity Plus: SAg Assay (AID 2283095);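 further: relative cell number as total protein by SRB absorbance in sub-confluent culture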
Settings: primary human HUVEC with PBMC
Calls of active or inactive are those of the source. How the source made its calls: active means hit-call score of the fitted dose curve at least 0.9, where 1 is the maximum; inactive means score below 0.9.
metric: AC50

Solved cases (4 shown):
CCCCOCN(C(=O)CCl)c1c(CC)cccc1CC; 22.2 µM (active)
COC(=O)NC(=S)Nc1ccccc1NC(=S)NC(=O)OC; 19.2 µM (active)
CCCC(=NOCC)C1=C(O)CC(CC(C)SCC)CC1=O (stereo not given); inactive
CC(C)Nc1nc(Cl)nc(NC(C)C)n1; inactive

Could you tell me AC50 for each of these compounds? They are listed below.
1. O=C1C2CC=CCC2C(=O)N1SC(Cl)(Cl)Cl (stereo not given)
2. COc1ccc(-c2ccccc2)cc1NNC(=O)OC(C)C

1: 28.7 µM (active); 2: inactive
